Test system: MSTO-211H cells
Assay: Cell proliferation inhibition experiment (CellTiter-Glo)
Type: cell-based
Conditions: Homo sapiens, 96 hours, read-out: Inhibitory activity of each compound on the proliferation of MSTO-211H cells (grades of IC50 values)
Description: In this example, the intracellular ATP was quantitatively determined by the CellTiter-Glo luminescence cell viability detection kit to detect the number of living cells in the culture. […] Step 3: Cell viability was detected in the control group and treatment group using CellTiter-Glo Luminescent Cell Viability Assay kit (Promega, G7570). […] The signal was read using En Vision® Multilabel Plate Reader (Perkin Elmer). The inhibition percentage (%) was calculated using the following formula: […]
Each entry below carries its reported IC50.
Measured Property: IC50

[[record]]
molecule = "NC(=O)c1cc2c(c(F)c1-c1c(Cl)c(F)cc3c1C[C@](c1ccccc1)([C@@H]1CCCN1)O3)Oc1ncn(C3CC3)c(=O)c1O2 (atropisomer, axis not shown)"
observed_result = "< 200 nM"

[[record]]
molecule = "NC(=O)c1cc2cccnc2c(F)c1-c1c(Cl)c(F)cc2c1C[C@](c1ccccc1)([C@@H]1CCCN1)O2 (atropisomer, axis not shown)"
observed_result = "< 200 nM"

[[record]]
molecule = "[2H]C1([2H])CC[C@]([2H])([C@@]2(c3ccccc3)Cc3c(cc(F)c(Cl)c3-c3c(C(N)=O)cc4c(c3F)Oc3c(cnn(C5CC(F)(F)C5)c3=O)O4)O2)N1 (atropisomer, axis not shown)"
observed_result = "< 200 nM"


###

System: MSTO-211H cells
Experiment: Cell proliferation inhibition experiment (CellTiter-Glo)
Assay type: cell-based
Conditions: Homo sapiens, 96 hours, read-out: Inhibitory activity of each compound on the proliferation of MSTO-211H cells (grades of IC50 values)
pIC50: −log10 of the molar value.
Each entry below carries its reported pIC50.
Measured Property: pIC50

[[record]]
molecule = "NC(=O)c1cc2c(c(F)c1-c1c(Cl)c(F)cc3c1C[C@](c1ccccc1)([C@@H]1CCCN1)O3)Oc1nn(C3CC3)c(=O)cc1O2 (atropisomer, axis not shown)"
measured_property = "pIC50"
observed_result = "> 6.70"

[[record]]
molecule = "NC(=O)c1cc2c(c(F)c1-c1c(Cl)c(F)cc3c1C[C@](c1ccccc1)([C@@H]1CCCN1)O3)OCc1nccnc1-2 (atropisomer, axis not shown)"
measured_property = "pIC50"
observed_result = "> 6.70"

[[record]]
molecule = "NC(=O)c1cc2c(c(F)c1-c1c(Cl)c(F)cc3c1C[C@](c1ccccc1)([C@@H]1CCCN1)O3)Oc1nccnc1O2 (atropisomer, axis not shown)"
measured_property = "pIC50"
observed_result = "> 6.70"

[[record]]
molecule = "NC(=O)c1cc2c(c(F)c1-c1c(Cl)c(F)cc3c1C[C@](c1ccccc1)([C@@H]1CCCN1)O3)OCc1nncn1-2 (atropisomer, axis not shown)"
measured_property = "pIC50"
observed_result = "5.30 to 6.30"

[[record]]
molecule = "[2H]C([2H])([2H])n1ncc2c(c1=O)Oc1c(cc(C(N)=O)c(-c3c(Cl)c(F)cc4c3C[C@](c3ccccc3)([C@@H]3CCCN3)O4)c1F)O2 (atropisomer, axis not shown)"
measured_property = "pIC50"
observed_result = "> 6.70"


###

System: MSTO-211H cells
Experiment: Cell proliferation inhibition experiment (CellTiter-Glo)
Assay type: cell-based
Details: Homo sapiens, 96 hours, read-out: Inhibitory activity of each compound on the proliferation of MSTO-211H cells (grades of IC50 values)
Each entry below carries its reported IC50.
Measured Property: IC50

[[record]]
molecule = "CNC[C@@]1(c2ccccc2)Cc2c(cc(F)c(Cl)c2-c2c(C(N)=O)cc3c(c2F)OCCN3)O1 (atropisomer, axis not shown) [Compound I-17]"
measured_property = "IC50"
observed_result = "< 200 nM"

[[record]]
molecule = "[2H]C1([2H])CC[C@]([2H])([C@@]2(c3ccccc3)Cc3c(cc(F)c(Cl)c3-c3c(C(N)=O)cc4c(c3F)Oc3c(cnn(CCC(F)(F)F)c3=O)O4)O2)N1 (atropisomer, axis not shown) [Compound 155]"
measured_property = "IC50"
observed_result = "< 200 nM"

[[record]]
molecule = "NC(=O)c1cc2c(c(F)c1-c1c(Cl)c(F)cc3c1C[C@](c1ccccc1)([C@@H]1CCCN1)O3)OCc1n[nH]nc1-2 (atropisomer, axis not shown) [Compound 7]"
measured_property = "IC50"
observed_result = "200 to 500 nM"


###

Tested on: MSTO-211H cells
Assay: Cell proliferation inhibition experiment (CellTiter-Glo)
Assay type: cell-based
Conditions: Homo sapiens, 96 hours, read-out: Inhibitory activity of each compound on the proliferation of MSTO-211H cells (grades of IC50 values)
Measured Property: IC50

[[record]]
compound = "NC(=O)c1cc2c(c(F)c1-c1c(Cl)c(F)cc3c1C[C@](c1ccccc1)([C@@H]1CCCN1)O3)Oc1cnn(CCC(F)(F)F)c(=O)c1O2 (atropisomer, axis not shown)"
target_system = "MSTO-211H cells"
observed_result = "0.5 to 5 µM"

[[record]]
compound = "NC(=O)c1cc2cn[nH]c2c(F)c1-c1c(Cl)c(F)cc2c1C[C@](c1ccccc1)([C@@H]1CCCN1)O2 (atropisomer, axis not shown)"
target_system = "MSTO-211H cells"
observed_result = "0.2 to 0.5 µM"

[[record]]
compound = "NC(=O)c1cc2c(c(F)c1-c1c(Cl)c(F)cc3c1C[C@](c1ccccc1)([C@@H]1CCCN1)O3)Oc1c(cnn(CC(F)(F)F)c1=O)O2 (atropisomer, axis not shown)"
target_system = "MSTO-211H cells"
observed_result = "< 0.2 µM"

[[record]]
compound = "NC(=O)c1cc2c(c(F)c1-c1c(Cl)c(F)cc3c1C[C@](c1ccccc1)([C@@H]1CCCN1)O3)Oc1c(cnn(C3CC(F)(F)C3)c1=O)O2 (atropisomer, axis not shown)"
target_system = "MSTO-211H cells"
observed_result = "< 0.2 µM"

[[record]]
compound = "Cn1cnc2c(c1=O)Oc1c(cc(C(N)=O)c(-c3c(Cl)c(F)cc4c3CC(c3ccccc3)(C3CCCN3)O4)c1F)O2 (centres unmarked)"
target_system = "MSTO-211H cells"
observed_result = "< 0.2 µM"


###

Target: YAP-TEAD protein interaction (His-TEAD1 (209-426) protein, Bio-YAP peptide (60-100)) (Homo sapiens)
Sequence (P28347 209-426): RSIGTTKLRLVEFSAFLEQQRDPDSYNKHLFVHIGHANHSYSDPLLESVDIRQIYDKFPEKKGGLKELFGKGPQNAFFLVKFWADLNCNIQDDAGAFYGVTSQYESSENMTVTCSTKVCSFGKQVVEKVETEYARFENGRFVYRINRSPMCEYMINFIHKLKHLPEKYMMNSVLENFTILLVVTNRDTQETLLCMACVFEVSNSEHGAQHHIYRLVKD
Assay: YAP-TEAD protein interaction HTRF experiment
Format: binding
Conditions: His-TEAD1 (209-426) 10 nM, Bio-YAP peptide 50 nM, read-out: Activity of each compound in blocking YAP-TEAD protein interaction (grades of IC50 values)
pIC50: −log10 of the molar value.
Each entry below carries its reported pIC50.
Measured Property: pIC50

[[record]]
compound = "CNC(=O)c1cc2c(c(F)c1-c1c(Cl)c(F)cc3c1C[C@](c1ccccc1)([C@@H]1CCCN1)O3)Oc1c(cnn(CCC(F)(F)F)c1=O)O2 (atropisomer, axis not shown)"
observed_result = "> 7.30"

[[record]]
compound = "NC(=O)c1cc2c(c(F)c1-c1c(Cl)c(F)cc3c1C[C@](c1ccccc1)([C@@H]1CCCN1)O3)Oc1c(ncn(C3CC3)c1=O)O2 (atropisomer, axis not shown)"
observed_result = "> 7.30"

[[record]]
compound = "NC(=O)c1cc2c(c(F)c1-c1c(Cl)c(F)cc3c1C[C@](c1ccccc1)([C@@H]1CCCN1)O3)OCC1(CC1)O2 (atropisomer, axis not shown)"
observed_result = "> 7.30"

[[record]]
compound = "NC(=O)c1cc2c(c(F)c1-c1c(Cl)c(F)cc3c1C[C@](c1ccccc1)([C@@H]1CCCN1)O3)OCCOC2 (atropisomer, axis not shown)"
observed_result = "> 7.30"

[[record]]
compound = "NC(=O)c1cc2cn[nH]c2c(F)c1-c1c(Cl)c(F)cc2c1C[C@](c1ccccc1)([C@@H]1CCCN1)O2 (atropisomer, axis not shown)"
observed_result = "> 7.30"

[[record]]
compound = "[2H]C1([2H])CC[C@]([2H])([C@@]2(c3ccccc3)Cc3c(cc(F)c(Cl)c3-c3c(C(=O)NC)cc4c(c3F)Oc3c(cnn(CC(F)(F)F)c3=O)O4)O2)N1 (atropisomer, axis not shown)"
observed_result = "> 7.30"

[[record]]
compound = "[2H]c1c([2H])c([2H])c([C@]2([C@@H]3CCCN3)Cc3c(cc(F)c(Cl)c3-c3c(C(N)=O)cc4c(c3F)OCc3nn(C)cc3-4)O2)c([2H])c1[2H] (atropisomer, axis not shown) [Compound 117]"
observed_result = "< 5.30"

[[record]]
compound = "CNC[C@@]1(c2ccccc2)Cc2c(cc(F)c(Cl)c2-c2c(C(N)=O)cc3c(c2F)OCCN3)O1 (atropisomer, axis not shown)"
observed_result = "> 7.30"

[[record]]
compound = "NC(=O)c1cc2c(c(F)c1-c1c(Cl)c(F)cc3c1C[C@](c1ccccc1)([C@@H]1CCCN1)O3)OCCO2 [Compound 1′]"
observed_result = "6.30 to 7.30"

[[record]]
compound = "CN1C(=O)COc2c1cc(C(N)=O)c(-c1c(Cl)c(F)cc3c1C[C@](c1ccccc1)([C@@H]1CCCN1)O3)c2F (atropisomer, axis not shown)"
observed_result = "> 7.30"

